test system: Mycobacterium tuberculosis H37Rv (ATCC #27294); test: microbe, parasite or virus in culture; assay type: cell-based; details: read-out: Compound MIC50
Each item that follows carries a reported MIC50.
Please give a number only; it is taken to be in µM.

Before answering, review these 4 worked examples.
molecule: O=c1[nH]c(CC2CCCCC2)cc(O)c1-c1ccccc1
display.unit: µM
meas.value: 0.16

molecule: NNC(=O)c1ccncc1 [Isoniazid, isoniazid, reference compound]
display.unit: µM
meas.value: 0.25

molecule: CCc1cc(C(N)=S)ccn1 [Ethionamide, reference compound]
display.unit: µM
meas.value: 1.66

molecule: CC(C)Cc1cc(O)c(-c2ccccc2)c(=O)[nH]1
display.unit: µM
meas.value: 1.54

Next item in the queue.
Q: Fill in the blank: the reported MIC50 of CC1(C)CCC(Cc2cc(O)c(-c3ccccc3)c(=O)[nH]2)CC1 is ____.
Result: 0.05
